tested on: HEK-293T; experiment: Multiplex assay against HEK293T; format: toxicity, cell-based; settings: human, 24 h, 10 µM, compound concentration 10 uM, replicate 2
Reported Population Normal (%) values are given for each entry in this list.
Give the number; % is assumed, so skip it.

{"compound": "C[C@H](N)COC(=O)[C@@H](CCCCN)NC(=O)Cc1c(-c2ccc3ccccc3c2)[nH]c2c1ccc1ccccc12", "unit.string": "%", "Population Normal (%)": 92}
{"compound": "CC(C)COc1ccc(CNC(=O)N(Cc2ccc(F)cc2)C2CCN(C)CC2)cc1 [PIMAVANSERIN]", "unit.string": "%", "Population Normal (%)": 65}
{"compound": "COC[C@@H](c1ccc(C(F)(F)F)cc1)N1CCN(C2(C)CCN(C(=O)c3c(C)ncnc3C)CC2)C[C@@H]1C.O=C(O)/C=C\\C(=O)O [VICRIVIROC MALEATE]", "unit.string": "%", "Population Normal (%)": 83}
{"compound": "Cc1sc2c(c1C)C(c1ccc(Cl)cc1)=N[C@@H](CC(=O)NCCCCCCCCNC(=O)COc1cccc3c1C(=O)N(C1CCC(=O)NC1=O)C3=O)c1nnc(C)n1-2 (stereo partly drawn)", "unit.string": "%", "Population Normal (%)": 60}

stdin: Which Population Normal (%) reading was recorded for the compound CC(C)c1noc(N2CCC(COc3ccc(-c4ccc(S(C)(=O)=O)cc4)nc3)CC2)n1 [GSK-1292263] ?
stdout: 89

stdin: Name the reported Population Normal (%) value associated with the compound Br.CS(=O)(=O)Nc1c(O)ccc2c1CCCC2C1=NCCN1 (stereo not drawn)
stdout: 88

stdin: GET /values?readout=Population Normal (%)&item= "N#Cc1c(Oc2cccc(OS(=O)(=O)CCCC(F)(F)F)c2)cccc1C(F)(F)F"
stdout: 52

stdin: Entry under review: "O=C(CCCc1ccccc1)Nc1nc2ccccc2c(=O)s1" . Reported Population Normal (%)?
stdout: 75
